system: SK-MEL-28 melanoma; test: NCI tumour cell line growth inhibition, 48 h
Here, each record is paired with measured TGI data.
I only need the number, in µM, no unit after it.

COc1cc(OC)c(/C=C/C(=O)c2c(OC)cc(OC)cc2OC)c(OC)c1	5.24

Please examine the following record next.
Ask: Kindly indicate its recorded TGI. Item: COc1ccc2c3ccnc(C(F)(F)F)c3n(CCCCN)c2c1
Result: 3.82

* * *

Quick record: GI50, U251 CNS.

Solved entries:
Cn1nc(C(F)(F)F)cc1-c1cc(Cl)c(OCc2ccc(Cl)cc2)c(-c2ccc(Cl)c(C(F)(F)F)c2)c1O	1.05 µM
Nc1nc(-c2ccc3c(c2)/C(=C\c2cc(Br)c(O)c(Br)c2)C(=O)N3)cs1	12.8 µM
COc1ccc2c3ccnc(C(F)(F)F)c3n(CCCCN)c2c1	7.31 µM
Cc1[nH]nc(C(F)(F)F)c1Cc1sc2c(c1C(=O)N1C[C@](C)(O)CO1)c(=O)n(C)c(=O)n2C(C)C	> 100 µM
COc1c(C(N)=O)cc(-c2ccc(Cl)cc2)cc1-c1ccc(S(N)(=O)=O)cc1	9.52 µM
CC1=CC2(C)/C=C(C)/C=C\CC(O)/C=C3/C=CC(=C4C(=O)OC2(CC1C)C4=O)OC3 (centres undefined)	1.64 µM
CN1CCN(Cc2ccc(NC(=O)c3cncc(C#Cc4ccc(N)nc4)c3)cc2C(F)(F)F)CC1	0.924 µM
CCCCCCCCN(CCCCCCCC)CC(O)c1cc(-c2ccccc2)nc2ccc(OC)cc12 (centres undefined)	27.8 µM

Switching to the query record.
Ask: Report the value of GI50 obtained on U251 CNS for COc1ccc(C(=O)/C=C/c2ccc(OCc3cccc(C(F)(F)F)c3)c(OC)c2)cc1OC .
Result: 61.4 µM

* * *

test system: HOP-62 NSCLC; experiment: NCI tumour cell line growth inhibition, 48 h
METRIC_NAME: TGI (µM)
Please state the figure in µM; there is no need to write the unit.

Use these answered entries as a reference point.
COCC(C#N)NC1CC(OC2CC(O)(C(=O)CO)Cc3c(O)c4c(c(O)c32)C(=O)c2c(OC)cccc2C4=O)OC(C)C1O (stereo not given)	0.261
Cc1cc2nc3c(C#N)c(C)c(CCCl)c(Cl)n3c2cc1C	4.64
CCOc1ccccc1N=NC1C(=O)N(C(=O)CC(=O)Nc2ccccc2C)N=C1C (stereo not given)	41.5

Turning now to a further compound:
Ask: Provide only the value of recorded TGI for O=C(Nc1ccc(Br)c2ccccc12)c1ccc2ccccc2c1O
Result: 14.8

* * *

Each entry below lists one item and its recorded TGI value.
test system: MCF7 breast; assay: NCI tumour cell line growth inhibition, 48 h
Answer format: numeric, µM implied, no suffix.

Observe how each entry below is paired with its result.
Cc1cc(I)cc(CN(C)CCCN2CCC(C)CC2)c1O	28.2
CCN(CC)CCOc1nc2ccccc2c2c1-c1ccc(OC)cc1C2=O	2.23

Ask: Report measured TGI on MCF7 breast; entry: CC1=CC2(C)/C=C(C)/C=C\CC(O)/C=C3/C=CC(=C4C(=O)OC2(CC1C)C4=O)OC3 (stereo not given)
Result: 20.7

* * *

test system: NCI-H522 lung; assay: NCI tumour cell line growth inhibition, 48 h
We begin with a simple list: items and their reported TGI.

Recorded results for 6 compounds are shown here.
CC1(c2ccc(F)cc2)C2C(=O)NC(=O)C1C(=O)NC2=O (centres undefined)	> 100 µM
Oc1c(C(c2ccc(F)cc2)N2CCCCC2)ccc2cncnc12 (centres undefined)	10.2 µM
COC(=O)/C=C1\C(CO[Si](C)(C)C(C)(C)C)OC(n2cc(C)c(=O)n(C)c2=O)C1O[Si](C)(C)C(C)(C)C (centres undefined)	> 100 µM
COc1nn(C)cc1Nc1nccc(-c2c[nH]c3c(NC(=O)[C@@H](C)N4CCN(C)CC4)cccc23)n1	> 100 µM
COc1ccc(NC(=O)CSC(=O)c2ccccc2)c(SCCSSCCSc2cc(OC)ccc2NC(=O)CSC(=O)c2ccccc2)c1	> 100 µM
C1=CC2C(C3CN(c4ccccc4)N=C13)C1C3C4C=CC21C=CC43 (centres undefined)	> 100 µM

Ask: Supply recorded TGI for C=CCc1c(O)c(C(=O)/C=C/c2ccc(Cl)cc2)c(OC)c2ccoc12 here.
Result: 5.71 µM

Ask: Consider the compound COC1(OC)CC(CO)(COc2cc(Cl)nc(N)n2)C1 and give its recorded TGI.
Result: > 100 µM

Ask: Entry OC(c1cc(C(F)(F)F)nc2c(Cl)cc(Cl)cc12)C1CCCCN1 (centres undefined) needs its TGI filled in; supply it.
Result: > 21 µM
